Reported Plant response rating, Crabgrass, Large is given for each of the following compounds.
System: large crabgrass (Digitaria sanguinalis)
Test protocol: Test A pre-/postemergence plant response
Format: in vivo
Measurement parameters: Postemergence, 125 g ai/ha; 0 to 100 scale where 0 is no effect and 100 is complete control
Just the number, please, no unit after it.

Recorded results for 3 compounds are shown here.
{"Compound": "COCC(C)n1c(-c2ccccc2)ncc(C(=O)C2=C(O)CCCC2=O)c1=O (centres unmarked)", "Plant response rating, Crabgrass, Large": 80}
{"Compound": "CCCn1c(-c2ccco2)ncc(C(=O)C2=C(O)CCCC2=O)c1=O", "Plant response rating, Crabgrass, Large": 80}
{"Compound": "O=C1CCCC(O)=C1C(=O)c1cnc(-c2ccccc2)n(C2CC[S+]([O-])CC2)c1=O (mixture of isomers)", "Plant response rating, Crabgrass, Large": 50}

Please examine the following record next.
Give the measured Plant response rating, Crabgrass, Large of Cc1ccc(-n2c(-c3cccc(F)c3)ncc(C(=O)C3=C(O)CCCC3=O)c2=O)cc1 .
70

----------
Reported Plant response rating, Morningglory is given for each of the following compounds.
Tested on: morningglory (Ipomoea spp.)
Test protocol: Test A pre-/postemergence plant response
Format: in vivo
Measurement parameters: Postemergence, 125 g ai/ha; 0 to 100 scale where 0 is no effect and 100 is complete control

Recorded results for 2 compounds are shown here.
{"Compound": "O=C1CCCC(O)=C1C(=O)c1cnc(-c2cccc(F)c2)n(C2CCCCC2)c1=O [Compound 187]", "Plant response rating, Morningglory": 100}
{"Compound": "CCCCn1c(-c2cccc(Br)c2)ncc(C(=O)C2=C(O)CCCC2=O)c1=O [Compound 138]", "Plant response rating, Morningglory": 50}

Give the measured Plant response rating, Morningglory of CCc1ccc(-n2c(-c3cccc(Br)c3)ncc(C(=O)C3=C(O)CCCC3=O)c2=O)cc1 [Compound 177] .
0

And what about the compound COCCn1c(-c2ccccc2)ncc(C(=O)C2=C(O)CCCC2=O)c1=O [Compound 85] ?
100

----------
Test system: velvetleaf (Abutilon theophrasti)
Test protocol: Test B pre-/postemergence plant response
Format: in vivo
Measurement parameters: Postemergence, 125 g ai/ha; visual rating after 13 to 15 days, scale 0 (no effect) to 100 (complete control)
Reported Plant response rating, Velvetleaf is given for each of the following molecules.
Just the number, please, no unit after it.

Recorded results for 5 molecules are shown here.
{"Molecule": "CCCn1c(-c2cccs2)ncc(C(=O)C2=C(O)CCCC2=O)c1=O [Compound 77]", "Plant response rating, Velvetleaf": 98}
{"Molecule": "CCCc1ncc(C(=O)C2=C(O)CCCC2=O)c(=O)n1-c1ccccc1C [Compound 73]", "Plant response rating, Velvetleaf": 100}
{"Molecule": "O=C1CCCC(O)=C1C(=O)c1cnc(-c2ccccc2)n(-c2cccc(Br)c2)c1=O [Compound 38]", "Plant response rating, Velvetleaf": 100}
{"Molecule": "Cc1ccc(-n2c(-c3ccccc3)ncc(C(=O)C3=C(O)CCCC3=O)c2=O)cc1 [Compound 8]", "Plant response rating, Velvetleaf": 95}
{"Molecule": "Cc1ccccc1-c1ncc(C(=O)C2=C(O)CCCC2=O)c(=O)n1-c1ccccc1 [Compound 82]", "Plant response rating, Velvetleaf": 90}

Give the measured Plant response rating, Velvetleaf of Cc1ccc(F)cc1-n1c(-c2ccccc2)ncc(C(=O)C2=C(O)CCCC2=O)c1=O [Compound 44] .
100

And what about the molecule Cc1cc(-n2c(-c3ccccc3)ncc(C(=O)C3=C(O)CCCC3=O)c2=O)ccc1F [Compound 53] ?
95

----------
Reported Plant response rating, Morningglory is given for each of the following compounds.
System: morningglory (Ipomoea coccinea)
Test protocol: Test B pre-/postemergence plant response
Format: in vivo
Measurement parameters: Postemergence, 62 g ai/ha; scale 0 to 100 (0 no effect, 100 complete control)
Source text: […] Treated plants and controls were maintained in a greenhouse for 13 to 15 days, after which time all treated plants were visually evaluated and compared to controls. […]

Recorded results for 2 compounds are shown here.
{"Compound": "CCCCn1c(-c2cc(F)cc(F)c2)ncc(C(=O)C2=C(O)C3CCC(C3)C2=O)c1=O (centres unmarked) [Compound 245]", "Result": 100}
{"Compound": "Cc1cc(-n2c(-c3cccc(F)c3)ncc(C(=O)C3=C(O)CCCC3=O)c2=O)ccc1F [Compound 191]", "Result": 65}

Give the measured Plant response rating, Morningglory of CC1(C)CC(=O)C(C(=O)c2cnc(-c3ccccc3)n(-c3ccccc3)c2=O)=C(O)C1 [Compound 225] .
95

And what about the compound O=C1CCCC(O)=C1C(=O)c1cnc(-c2ccc(F)cc2)n(C2CCCCC2)c1=O [Compound 197] ?
100

And what about the compound O=C(C1=C(O)C2CCC(C2)C1=O)c1cnc(-c2ccsc2)n(CC2CCCO2)c1=O (centres unmarked) [Compound 229] ?
100

----------
Reported Morningglory plant response rating (0 to 100 scale) is given for each of the following molecules.
Tested on: morningglory (Ipomoea coccinea)
Test protocol: Test B pre-/postemergence plant response
Type: in vivo
Measurement parameters: 62 g ai/ha, postemergence; 0 is no effect, 100 is complete control; 13 to 15 days
Text: […] Treated plants and controls were maintained in a greenhouse for 13 to 15 days, after which time all treated plants were visually evaluated and compared to controls. […]
Just the number, please, no unit after it.

{"Molecule": "O=C1CCCC(O)=C1C(=O)c1cnc(-c2ccccc2Br)n(-c2ccccc2)c1=O [Compound 71]", "Result": 65}

Give the measured Morningglory plant response rating (0 to 100 scale) of CC(C)CC(=O)OC1=C(C(=O)c2cnc(-c3ccccc3)n(-c3ccccc3)c2=O)C(=O)CCC1 [Compound 83] .
75

And what about the molecule CCCn1c(-c2cccs2)ncc(C(=O)C2=C(O)CCCC2=O)c1=O [Compound 77] ?
75

And what about the molecule COCCn1c(-c2cc(F)cc(F)c2)ncc(C(=O)C2=C(O)CCCC2=O)c1=O [Compound 119] ?
60

And what about the molecule CCCn1c(-c2cccc(C(F)(F)F)c2)ncc(C(=O)C2=C(O)CCCC2=O)c1=O [Compound 155] ?
85

And what about the molecule COCCCn1c(-c2cc(F)cc(F)c2)ncc(C(=O)C2=C(O)CCCC2=O)c1=O [Compound 120] ?
50

And what about the molecule CCCCn1c(-c2cc(F)cc(F)c2)ncc(C(=O)C2=C(O)CCCC2=O)c1=O [Compound 121] ?
20

And what about the molecule CCCc1ncc(C(=O)C2=C(O)CCCC2=O)c(=O)n1CC1CCCO1 (stereo not shown) [Compound 74] ?
85

And what about the molecule COCCn1c(-c2ccccc2)ncc(C(=O)C2=C(O)CCCC2=O)c1=O [Compound 85] ?
100

And what about the molecule CC(C)n1c(-c2ccccc2)ncc(C(=O)C2=C(O)CCCC2=O)c1=O [Compound 95] ?
100

----------
System: giant foxtail (Setaria faberii)
Test protocol: Test A pre-/postemergence plant response
Format: in vivo
Measurement parameters: Preemergence, 125 g ai/ha; 0 to 100 scale, 0 = no effect, 100 = complete control
Reported Plant response rating, Foxtail, Giant is given for each of the following compounds.
Just the number, please, no unit after it.

{"Compound": "O=C1CCCC(O)=C1C(=O)c1cnc(-c2ccsc2)n(-c2ccccc2)c1=O", "Plant response rating, Foxtail, Giant": 70}
{"Compound": "O=C1CCCC(O)=C1C(=O)c1cnc(-c2ccccc2Cl)n(-c2ccccc2)c1=O", "Plant response rating, Foxtail, Giant": 0}
{"Compound": "Cc1ccc(Cl)cc1-n1c(-c2cccc(Br)c2)ncc(C(=O)C2=C(O)CCCC2=O)c1=O", "Plant response rating, Foxtail, Giant": 0}

Look up Plant response rating, Foxtail, Giant with giant foxtail (Setaria faberii) for this compound: O=C(C1=C(O)C2CCC(C2)C1=O)c1cnc(-c2ccsc2)n(CC2CCCO2)c1=O (stereo not drawn)
50

And what about the compound O=C1CCCC(O)=C1C(=O)c1cnc(-c2cc(F)c(F)c(F)c2)n(C2CCCCC2)c1=O ?
10

And what about the compound CCCn1c(-c2ccc3ccccc3c2)ncc(C(=O)C2=C(O)CCCC2=O)c1=O ?
0

And what about the compound COCCCn1c(-c2cccc(F)c2)ncc(C(=O)C2=C(O)C3CCC(C3)C2=O)c1=O (stereo not drawn) ?
50

And what about the compound COCCn1c(-c2ccsc2)ncc(C(=O)C2=C(O)C3CCC(C3)C2=O)c1=O (stereo not drawn) ?
50

And what about the compound Cc1ccc(Cl)cc1-n1c(-c2cc(F)cc(F)c2)ncc(C(=O)C2=C(O)CCCC2=O)c1=O ?
10

----------
Reported Plant response rating, Soybean is given for each of the following compounds.
System: soybean (Glycine max)
Test protocol: Test B pre-/postemergence plant response
Type: in vivo
Measurement parameters: Postemergence, 250 g ai/ha; scale 0 to 100 (0 no effect, 100 complete control)
Just the number, please, no unit after it.

Recorded results for 3 compounds are shown here.
{"Compound": "O=C1CCCC(O)=C1C(=O)c1cnc(-c2ccccc2Br)n(-c2ccccc2)c1=O [Compound 71]", "Plant response rating, Soybean": 98}
{"Compound": "COCCCn1c(-c2cccc(C)c2)ncc(C(=O)C2=C(O)CCCC2=O)c1=O [Compound 118]", "Plant response rating, Soybean": 100}
{"Compound": "COCCn1c(-c2ccccc2)ncc(C(=O)C2=C(O)CCCC2=O)c1=O [Compound 85]", "Plant response rating, Soybean": 95}

Give the measured Plant response rating, Soybean of CCCn1c(-c2cccs2)ncc(C(=O)C2=C(O)CCCC2=O)c1=O [Compound 77] .
70

And what about the compound COCCn1c(-c2cc(F)cc(F)c2)ncc(C(=O)C2=C(O)CCCC2=O)c1=O [Compound 119] ?
80

And what about the compound Cc1ccccc1-c1ncc(C(=O)C2=C(O)CCCC2=O)c(=O)n1-c1ccccc1 [Compound 82] ?
98
